Here, each record is paired with measured IC50 data.
target: Programmed cell death protein 1/Programmed cell death 1 ligand 1 (Homo sapiens, UniProt Q9NZQ7)
Sequence (Q15116 whole entry): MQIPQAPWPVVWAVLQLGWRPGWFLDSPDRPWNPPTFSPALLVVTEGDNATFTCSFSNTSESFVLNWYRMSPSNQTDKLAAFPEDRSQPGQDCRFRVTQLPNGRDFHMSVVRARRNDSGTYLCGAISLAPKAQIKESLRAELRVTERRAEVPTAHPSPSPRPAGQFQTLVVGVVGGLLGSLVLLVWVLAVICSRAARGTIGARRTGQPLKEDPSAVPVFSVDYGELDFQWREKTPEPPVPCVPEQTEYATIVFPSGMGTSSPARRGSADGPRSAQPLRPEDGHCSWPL
Sequence (Q9NZQ7 whole entry): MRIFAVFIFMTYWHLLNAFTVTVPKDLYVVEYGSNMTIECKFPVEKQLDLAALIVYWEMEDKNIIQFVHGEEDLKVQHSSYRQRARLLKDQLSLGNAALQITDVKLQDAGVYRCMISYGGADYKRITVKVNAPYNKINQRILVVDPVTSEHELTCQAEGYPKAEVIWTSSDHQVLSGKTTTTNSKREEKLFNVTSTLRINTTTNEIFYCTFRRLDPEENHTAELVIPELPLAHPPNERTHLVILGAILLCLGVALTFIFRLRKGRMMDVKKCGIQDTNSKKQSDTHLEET
test.details: Inhibition of PD-1/PD-L1 (unknown origin) protein-protein interaction by HTRF assay
Lab book: enter the figure in µM, no units written.

• COc1nc(-c2cccc(-c3ccccc3)c2C)ccc1CNCCC(=O)NO = 0.0676

# lookup: IC50 of `COc1nc(OCc2cccc(-c3ccccc3)c2C)ccc1CNc1ccc(C(=O)NO)cc1`
0.1

# lookup: IC50 of `COc1nc(-c2cccc(-c3ccccc3)c2C)ccc1CNCCCCC(=O)NO`
0.0792

# lookup: IC50 of `COc1nc(OCc2cccc(-c3ccccc3)c2C)ccc1CNCCCCCC(=O)NO`
0.0683

# lookup: IC50 of COc1nc(-c2cccc(-c3ccccc3)c2C)ccc1CN1CCC(C(=O)Nc2ccccc2N)C1 (configuration not stated)
0.099

# lookup: IC50 of `COc1nc(OCc2cccc(-c3ccccc3)c2C)ccc1CNCCCCCCC(=O)Nc1ccccc1N`
0.0836

# lookup: IC50 of `COc1nc(OCc2cccc(-c3ccccc3)c2C)ccc1CNCCCCC(=O)NO`
0.1

###

test.details: AUC (0 to t) in male Sprague-Dawley rat at 10 mg/kg, po measured after 48 hrs by triple quadrupole mass spectrometric analysis
Type: ADME, organism-based
condition.parameters: in vivo
measurement.label: AUC(0-t) at 48 h
Answers without a unit are incomplete; give the number and then its unit.

# lookup: AUC(0-t) at 48 h of `COc1nc(-c2cccc(-c3ccccc3)c2C)ccc1CNCCCCCCC(=O)NO`
872 ng·h/mL

###

Here, each record is paired with measured IC50 data.
target: Programmed cell death protein 1/Programmed cell death 1 ligand 1 (Homo sapiens, UniProt Q9NZQ7)
test.details: Inhibition of PD-1/PD-L1 (unknown origin) protein-protein interaction by HTRF assay

Recorded IC50, per entry:
• COc1nc(-c2cccc(-c3ccccc3)c2C)ccc1CNCCCCCCC(=O)Nc1ccccc1N = 100 nM
• COc1nc(OCc2cccc(-c3ccccc3)c2C)ccc1CNC1CCC(C(=O)Nc2ccccc2N)CC1 (centres undefined) = > 1000 nM
• COc1nc(-c2cccc(-c3ccccc3)c2C)ccc1CNc1ccc(C(=O)Nc2ccccc2N)s1 = 100 nM
• COc1nc(-c2cccc(-c3ccccc3)c2C)ccc1CNCCCC(=O)NO = 20.8 nM
• COc1nc(-c2cccc(-c3ccccc3)c2C)ccc1CNc1ccc2cc(C(=O)Nc3ccccc3N)ccc2c1 = > 1000 nM
• CC[C@@H](NCc1ccc(-c2cccc(-c3ccccc3)c2C)nc1OC)C(=O)Nc1ccccc1N = > 1000 nM
• COc1nc(OCc2cccc(-c3ccccc3)c2C)ccc1CN1CCC(C(=O)Nc2ccccc2N)C1 (centres undefined) = 72.2 nM
• COc1nc(-c2cccc(-c3ccccc3)c2C)ccc1CNc1ccc(CC(=O)Nc2ccccc2N)cc1 = 100 nM

# lookup: IC50 of COc1nc(OCc2cccc(-c3ccccc3)c2C)ccc1CN1CCCC1C(=O)Nc1ccccc1N (centres undefined)
> 1000 nM

###

test.details: Cmax in male Sprague-Dawley rat at 10 mg/kg, po measured after 48 hrs by triple quadrupole mass spectrometric analysis
Assay type: ADME, organism-based
condition.parameters: in vivo
measurement.label: Cmax (ng/mL)
Lab book: enter the figure in ng/mL, no units written.

# lookup: Cmax of `COc1nc(-c2cccc(-c3ccccc3)c2C)ccc1CNCCCCCCC(=O)NO`
194

###

test.details: MRT (0 to t) in male Sprague-Dawley rat at 2 mg/kg, iv measured after 48 hrs by triple quadrupole mass spectrometric analysis
Format: ADME, organism-based
condition.parameters: in vivo
measurement.label: MRT last at 48 h
Answers without a unit are incomplete; give the number and then its unit.

# lookup: MRT last at 48 h of `COc1nc(-c2cccc(-c3ccccc3)c2C)ccc1CNCCCCCCC(=O)NO`
7.06 h

###

target: UniProtKB Q9UBN7
Sequence (Q9UBN7 whole entry): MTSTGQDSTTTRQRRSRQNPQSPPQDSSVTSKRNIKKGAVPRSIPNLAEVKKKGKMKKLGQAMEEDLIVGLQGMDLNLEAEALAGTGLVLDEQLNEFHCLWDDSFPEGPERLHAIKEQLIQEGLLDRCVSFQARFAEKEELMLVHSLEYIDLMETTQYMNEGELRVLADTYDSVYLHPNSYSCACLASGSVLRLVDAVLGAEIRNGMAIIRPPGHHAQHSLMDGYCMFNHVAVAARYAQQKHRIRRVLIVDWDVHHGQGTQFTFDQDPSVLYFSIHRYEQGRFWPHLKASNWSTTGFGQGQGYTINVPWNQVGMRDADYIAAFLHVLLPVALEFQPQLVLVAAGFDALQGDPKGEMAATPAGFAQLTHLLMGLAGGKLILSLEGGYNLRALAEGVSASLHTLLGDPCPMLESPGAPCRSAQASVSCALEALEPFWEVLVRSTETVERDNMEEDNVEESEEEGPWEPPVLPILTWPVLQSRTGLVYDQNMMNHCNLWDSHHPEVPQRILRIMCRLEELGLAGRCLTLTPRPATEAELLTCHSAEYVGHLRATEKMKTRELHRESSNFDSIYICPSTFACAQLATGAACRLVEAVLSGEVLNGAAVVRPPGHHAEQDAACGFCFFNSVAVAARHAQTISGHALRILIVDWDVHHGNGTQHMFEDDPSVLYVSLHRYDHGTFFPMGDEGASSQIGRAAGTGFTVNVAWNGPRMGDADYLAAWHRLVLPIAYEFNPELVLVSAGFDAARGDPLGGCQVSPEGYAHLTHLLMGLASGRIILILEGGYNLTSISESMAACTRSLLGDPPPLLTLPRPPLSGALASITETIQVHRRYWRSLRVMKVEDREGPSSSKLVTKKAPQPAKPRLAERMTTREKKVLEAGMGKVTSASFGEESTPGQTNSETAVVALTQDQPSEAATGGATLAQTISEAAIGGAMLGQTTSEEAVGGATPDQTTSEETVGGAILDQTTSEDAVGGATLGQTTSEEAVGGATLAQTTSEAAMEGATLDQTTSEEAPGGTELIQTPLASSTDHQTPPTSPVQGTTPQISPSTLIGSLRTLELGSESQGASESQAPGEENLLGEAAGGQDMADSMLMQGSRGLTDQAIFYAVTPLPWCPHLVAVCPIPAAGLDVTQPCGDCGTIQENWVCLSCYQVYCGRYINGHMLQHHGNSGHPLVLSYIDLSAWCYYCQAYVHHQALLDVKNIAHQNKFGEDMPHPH
condition.parameters: Sf9, dose 100.0 nM, time 30.0 min
measurement.label: inhibition

Recorded inhibition, per entry:
• CC[C@@H](NCc1ccc(-c2cccc(-c3ccccc3)c2C)nc1OC)C(=O)Nc1ccccc1N = < 13.5%
• CCCC[C@@H](NCc1ccc(-c2cccc(-c3ccccc3)c2C)nc1OC)C(=O)Nc1ccccc1N = < 13.5%

# lookup: inhibition of `COc1nc(-c2cccc(-c3ccccc3)c2C)ccc1CNc1cc(C(=O)NO)c[nH]1`
< 10%

# lookup: inhibition of `COc1nc(-c2cccc(-c3ccccc3)c2C)ccc1CN1CCC(C(=O)Nc2ccccc2N)CC1`
< 10%

# lookup: inhibition of `COc1nc(OCc2cccc(-c3ccccc3)c2C)ccc1CNC(C)(C)C(=O)NO`
< 10%

# lookup: inhibition of `COc1nc(-c2cccc(-c3ccccc3)c2C)ccc1CNC1(C(=O)Nc2ccccc2N)CCCC1`
< 13.5%

# lookup: inhibition of COc1nc(OCc2cccc(-c3ccccc3)c2C)ccc1CNC1CCC(C(=O)Nc2ccccc2N)CC1 (stereo not drawn)
< 10%

# lookup: inhibition of `CCCC[C@@H](NCc1ccc(OCc2cccc(-c3ccccc3)c2C)nc1OC)C(=O)Nc1ccccc1N`
< 10%

# lookup: inhibition of `COc1nc(-c2cccc(-c3ccccc3)c2C)ccc1CNc1cccc(C(=O)Nc2ccccc2N)c1`
< 10%

###

test.details: AUC (0 to t) in male Sprague-Dawley rat at 2 mg/kg, iv measured after 48 hrs by triple quadrupole mass spectrometric analysis
Assay type: ADME, organism-based
condition.parameters: in vivo
measurement.label: AUC(0-t) at 48 h

# lookup: AUC(0-t) at 48 h of `COc1nc(-c2cccc(-c3ccccc3)c2C)ccc1CNCCCCCCC(=O)NO`
1140 ng·h/mL

###

test.details: Half-life in male Sprague-Dawley rat at 2 mg/kg, iv measured after 48 hrs by triple quadrupole mass spectrometric analysis
Format: ADME, organism-based
condition.parameters: in vivo
measurement.label: half-life (h)
Lab book: enter the figure in h, no units written.

# lookup: half-life of `COc1nc(-c2cccc(-c3ccccc3)c2C)ccc1CNCCCCCCC(=O)NO`
6.9

###

test.details: AUC (0 to infinity) in male Sprague-Dawley rat at 2 mg/kg, iv measured after 48 hrs by triple quadrupole mass spectrometric analysis
Assay type: ADME, organism-based
condition.parameters: in vivo
measurement.label: AUC(0-inf) (ng·h/mL)
Lab book: enter the figure in ng·h/mL, no units written.

# lookup: AUC(0-inf) of `COc1nc(-c2cccc(-c3ccccc3)c2C)ccc1CNCCCCCCC(=O)NO`
1290

###

test.details: Half-life in male Sprague-Dawley rat at 10 mg/kg, po measured after 48 hrs by triple quadrupole mass spectrometric analysis
Format: ADME, organism-based
condition.parameters: in vivo
measurement.label: half-life (h)
Lab book: enter the figure in h, no units written.

# lookup: half-life of `COc1nc(-c2cccc(-c3ccccc3)c2C)ccc1CNCCCCCCC(=O)NO`
13.2

###

target: Histone deacetylase 1 (Homo sapiens)
Sequence (Q13547 whole entry, the tested form may be a part): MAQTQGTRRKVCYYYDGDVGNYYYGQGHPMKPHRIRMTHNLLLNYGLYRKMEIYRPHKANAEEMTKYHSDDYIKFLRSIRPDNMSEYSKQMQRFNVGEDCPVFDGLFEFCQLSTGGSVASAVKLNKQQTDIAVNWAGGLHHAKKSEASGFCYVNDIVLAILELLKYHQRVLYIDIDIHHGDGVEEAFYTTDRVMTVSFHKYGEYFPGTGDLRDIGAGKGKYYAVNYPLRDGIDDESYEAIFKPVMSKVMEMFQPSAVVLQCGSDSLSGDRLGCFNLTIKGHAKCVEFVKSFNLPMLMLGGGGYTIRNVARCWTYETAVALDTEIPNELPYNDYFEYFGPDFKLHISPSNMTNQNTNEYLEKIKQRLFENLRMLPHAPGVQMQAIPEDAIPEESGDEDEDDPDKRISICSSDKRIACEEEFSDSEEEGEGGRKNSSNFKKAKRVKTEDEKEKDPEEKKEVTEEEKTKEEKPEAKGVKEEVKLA
test.details: Inhibition of recombinant full-length human HDAC1 (1 to 482 residues) extracted from baculovirus expression system using Ac-Leu-Gly-Lys (Ac)-AMC as substrate preincubated for 5 mins followed by substrate addition and measured after 30 mins by fluorescence microplate reader analysis
pIC50: −log10 of the molar value.
measurement.label: pIC50

Test system Histone deacetylase 1 (Homo sapiens); read-out pIC50; what value for `COc1nc(OCc2cccc(-c3ccccc3)c2C)ccc1CNCCCCC(=O)NO` ?
< 5.00

###

test.details: Aqueous solubility of compound incubated for 24 hrs by miniaturized shake flask based HPLC analysis
Type: physicochemical
condition.parameters: buffer
measurement.label: solubility thermodynamic at 24 h (µg/mL)
Lab book: enter the figure in µg/mL, no units written.

- COc1nc(-c2cccc(-c3ccccc3)c2C)ccc1CNCCCCCCC(=O)NO: 57

Moving on to another compound below.
# lookup: solubility thermodynamic at 24 h of `COc1nc(OCc2cccc(-c3ccccc3)c2C)ccc1CNCCNC(C)=O`
38.3

###

test.details: MRT (0 to infinity) in male Sprague-Dawley rat at 2 mg/kg, iv measured after 48 hrs by triple quadrupole mass spectrometric analysis
Assay type: ADME, organism-based
condition.parameters: in vivo
measurement.label: MRT inf (h)
Lab book: enter the figure in h, no units written.

# lookup: MRT inf of `COc1nc(-c2cccc(-c3ccccc3)c2C)ccc1CNCCCCCCC(=O)NO`
7.12

###

test.details: Tmax in male Sprague-Dawley rat at 2 mg/kg, iv measured after 48 hrs by triple quadrupole mass spectrometric analysis
Format: ADME, organism-based
condition.parameters: in vivo
measurement.label: Tmax (min)
Lab book: enter the figure in min, no units written.

# lookup: Tmax of `COc1nc(-c2cccc(-c3ccccc3)c2C)ccc1CNCCCCCCC(=O)NO`
4.8

###

test.details: MRT (0 to infinity) in male Sprague-Dawley rat at 10 mg/kg, po measured after 48 hrs by triple quadrupole mass spectrometric analysis
Assay type: ADME, organism-based
condition.parameters: in vivo
measurement.label: MRT inf (h)
Lab book: enter the figure in h, no units written.

# lookup: MRT inf of `COc1nc(-c2cccc(-c3ccccc3)c2C)ccc1CNCCCCCCC(=O)NO`
19.3
